Source listed as patent US20240124597A1.

Target: T1, human-CD40-monomer protein (human, UniProt P25942 21-193, limits assumed)
T1 construct: Soluble monomer generated in house, used as SPR analyte; also called hCD40; hCD40-monomer
T1 sequence (P25942 21-193 limits assumed): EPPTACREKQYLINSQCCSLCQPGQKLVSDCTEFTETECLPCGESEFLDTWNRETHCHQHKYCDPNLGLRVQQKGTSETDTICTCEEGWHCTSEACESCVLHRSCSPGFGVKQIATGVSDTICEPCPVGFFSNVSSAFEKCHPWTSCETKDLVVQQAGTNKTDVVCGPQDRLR
Experiment: SPR, Ab captured on protein A, hCD40 monomer 500 and 50 nM, 1:1 fit; supernatant
# koff per record follows
Your answer is read as s⁻¹, so omit the unit and give the number.

Y12XX-hz20 (antibody, human IgG1, kappa, V domains shown, Humanized, IgG1-P238K; supernatant sample) VH: QVQLVQSGAEVKKPGSSVKVSCKASGYAFTSYWMHWVRQRPGQGLEWIGYINPTTGYSAYNQKFKDKATLTADKSTSTAYMELNSLRSEDTAVYYCARWDPRPFAYWGQGTLVTVSS VL: DIQMTQSPSFLSASVGDRVTITCKASQDVSTAVAWYQQKPGKAPKLLIYSASYRYTGVPSRFSGSGSGTDFTLTISSLQPEDFATYYCQQHYSTPWTFGGGTKVEIKR	0.0025
Y12XX-hz17 (antibody, human IgG1, kappa, V domains shown, Humanized, IgG1-P238K; supernatant sample) VH: QVQLVQSGAEVKKPGSSVKVSCKASGYAFTSYWMHWVRQRPGQGLEWIGFINPTTGYSEYNQKFKDRVTITADKSTSTAYMELNSLRSEDTAVYYCARWGLPPFAYWGQGTLVTVSS VL: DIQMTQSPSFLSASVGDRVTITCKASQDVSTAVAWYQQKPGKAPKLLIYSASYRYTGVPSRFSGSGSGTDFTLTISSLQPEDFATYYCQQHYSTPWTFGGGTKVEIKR	0.077

We next turn to a different binder, shown below.
Query: Looking for the measured koff of Y12XX-hz40-P238K (antibody, human IgG1, kappa, V domains shown, also called Vh-hz12;Vk-hz3) VH: QVQLVQSGAEVKKPGSSVKVSCKASGYAFTSYWMHWVRQAPGQGLEWMGQINPSQGRSQYNEKFKTRVTITADKSTSTAYMELSSLRSEDTAVYYCARWGLQPFAYWGQGTLVTVSS VL: EIVMTQSPATLSVSPGERATLSCKASQDVSTAVAWYQQKPGQAPRLLIYSASYRYTGIPARFSGSGSGTEFTLTISSLQSEDFAVYYCQQHYSTPWTFGGGTKVEIKR , can you help?
Result: 0.0011
